Biological target: T1, hFc tagged monkey LAG-3 protein (cLAG-3-hFc protein) (monkey; human)
T1 construct: Made in HEK293 cells; also called monkey LAG-3 extracellular domain protein; not shown: human IgG Fc fragment (hFc) of the pCpC vector
T1 chain: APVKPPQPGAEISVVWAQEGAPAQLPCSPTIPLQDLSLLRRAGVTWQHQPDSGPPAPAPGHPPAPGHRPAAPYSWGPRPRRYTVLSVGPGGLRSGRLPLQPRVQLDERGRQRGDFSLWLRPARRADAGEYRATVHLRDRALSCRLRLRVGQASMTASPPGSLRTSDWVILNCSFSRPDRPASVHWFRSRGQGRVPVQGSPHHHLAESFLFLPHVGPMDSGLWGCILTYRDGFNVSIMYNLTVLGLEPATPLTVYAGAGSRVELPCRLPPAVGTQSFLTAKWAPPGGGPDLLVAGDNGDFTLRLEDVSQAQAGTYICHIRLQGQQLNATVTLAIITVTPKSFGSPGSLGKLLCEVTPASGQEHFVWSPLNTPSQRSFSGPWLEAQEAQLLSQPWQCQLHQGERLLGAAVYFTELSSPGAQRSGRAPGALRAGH
Test: ELISA, cLAG-3-hFc coated; 66.6670 nM

{"columns": ["binder", "OD450, OD450"],
 "data": [
  ["409D4E10 (LAG-3 mouse-human chimeric antibody) (antibody, V domains shown) VH: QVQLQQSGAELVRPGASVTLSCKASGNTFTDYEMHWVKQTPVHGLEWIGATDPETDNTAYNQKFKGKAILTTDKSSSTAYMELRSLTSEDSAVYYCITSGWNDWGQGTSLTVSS VL: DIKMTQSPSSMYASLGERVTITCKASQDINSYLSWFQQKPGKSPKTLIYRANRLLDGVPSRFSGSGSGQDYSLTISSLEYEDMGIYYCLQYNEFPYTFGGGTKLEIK", 3.77],
  ["409B11E12 (LAG-3 mouse-human chimeric antibody) (antibody, V domains shown) VH: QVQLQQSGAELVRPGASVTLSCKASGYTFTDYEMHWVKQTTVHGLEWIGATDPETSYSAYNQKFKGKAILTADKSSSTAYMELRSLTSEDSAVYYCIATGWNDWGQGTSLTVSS VL: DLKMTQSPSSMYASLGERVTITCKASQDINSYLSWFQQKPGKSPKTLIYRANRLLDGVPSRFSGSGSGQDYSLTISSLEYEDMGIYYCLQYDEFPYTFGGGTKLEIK", 3.44],
  ["105F1E10 (LAG-3 mouse-human chimeric antibody) (antibody, V domains shown) VH: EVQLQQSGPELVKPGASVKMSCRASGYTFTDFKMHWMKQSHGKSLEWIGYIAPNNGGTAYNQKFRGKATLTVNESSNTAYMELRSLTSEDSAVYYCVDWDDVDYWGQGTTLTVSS VL: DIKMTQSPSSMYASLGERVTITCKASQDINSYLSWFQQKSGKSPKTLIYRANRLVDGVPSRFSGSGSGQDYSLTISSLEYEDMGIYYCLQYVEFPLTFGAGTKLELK", 3.59],
  ["556F6B8 (LAG-3 mouse-human chimeric antibody) (antibody, V domains shown, also called 556F8B8) VH: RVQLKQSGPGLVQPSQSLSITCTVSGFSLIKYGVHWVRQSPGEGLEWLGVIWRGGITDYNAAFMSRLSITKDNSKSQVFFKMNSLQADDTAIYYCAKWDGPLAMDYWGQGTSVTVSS VL: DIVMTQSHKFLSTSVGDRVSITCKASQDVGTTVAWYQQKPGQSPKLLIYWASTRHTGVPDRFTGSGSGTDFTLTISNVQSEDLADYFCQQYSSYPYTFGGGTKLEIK", 3.72],
  ["405B8H3 (LAG-3 mouse-human chimeric antibody) (antibody, V domains shown, also called mouse-human chimeric antibody 405B8H3) VH: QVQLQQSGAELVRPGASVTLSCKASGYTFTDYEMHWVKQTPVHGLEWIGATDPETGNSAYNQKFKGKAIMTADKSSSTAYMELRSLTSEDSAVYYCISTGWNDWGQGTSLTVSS VL: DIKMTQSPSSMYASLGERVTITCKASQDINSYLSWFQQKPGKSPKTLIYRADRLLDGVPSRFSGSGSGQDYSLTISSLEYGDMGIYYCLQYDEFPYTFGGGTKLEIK", 3.46]
]}
